Below, each entry is listed with its recorded Abs 630 (25 nM).
- TARGET_ENTITY: T1, human IL-10 receptor (hIL-10R alpha and beta chains) on HEK-Blue IL-10 reporter cells (human, UniProt Q13651 22-578; Q08334 20-325)
- T1 sequence 1: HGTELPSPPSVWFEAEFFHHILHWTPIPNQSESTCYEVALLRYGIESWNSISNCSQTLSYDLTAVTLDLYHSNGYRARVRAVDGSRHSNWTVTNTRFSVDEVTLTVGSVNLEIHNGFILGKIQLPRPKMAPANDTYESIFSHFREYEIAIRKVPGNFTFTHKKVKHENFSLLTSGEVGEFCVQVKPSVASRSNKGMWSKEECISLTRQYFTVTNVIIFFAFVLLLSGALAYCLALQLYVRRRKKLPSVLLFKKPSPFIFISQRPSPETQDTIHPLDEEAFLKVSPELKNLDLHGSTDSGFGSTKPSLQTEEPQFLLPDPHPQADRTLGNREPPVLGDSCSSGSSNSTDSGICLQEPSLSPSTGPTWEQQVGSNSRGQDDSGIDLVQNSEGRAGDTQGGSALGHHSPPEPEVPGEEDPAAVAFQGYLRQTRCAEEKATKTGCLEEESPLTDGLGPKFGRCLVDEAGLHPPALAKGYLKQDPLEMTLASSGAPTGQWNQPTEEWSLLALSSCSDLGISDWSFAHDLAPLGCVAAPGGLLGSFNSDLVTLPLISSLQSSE
- T1 sequence 2: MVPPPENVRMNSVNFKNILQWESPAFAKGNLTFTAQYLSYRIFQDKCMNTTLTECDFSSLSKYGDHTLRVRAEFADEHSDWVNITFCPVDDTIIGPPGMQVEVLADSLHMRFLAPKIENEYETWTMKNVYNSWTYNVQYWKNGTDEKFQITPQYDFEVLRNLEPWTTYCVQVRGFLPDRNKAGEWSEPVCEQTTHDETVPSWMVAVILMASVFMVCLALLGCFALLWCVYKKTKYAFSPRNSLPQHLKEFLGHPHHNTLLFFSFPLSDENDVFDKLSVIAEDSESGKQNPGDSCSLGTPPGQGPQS
- RUN_DESCRIPTION: cell-based or functional assay
Report as a plain number; the unit Abs 630 is understood.

A selection of reference data follows.
| BINDER | PROPERTY_NAME | VALUE_MEASURED |
| --- | --- | --- |
| IL10R binding molecule of SEQ ID NO: 329 (bispecific antibody) QVQLQESGGGSVQAGGSLRLSCTVSRYTASVNYMGWFRQAPGKEREGVATIFTGAGTTYYANSVKGRFTISRDNAKNTAYLQMNSLKPEDTAIYYCAVDFRGGLLYRPAYEYTYRGQGTQVTVSSGGGSQVQLQESGGGSVQAGGSLRLSCAVSGYAYSTYCMGWFRQAPGKEREGVAAIDSGGSTSYADSVKGRFTISKDNAKNTLYLRMNSLKPEDTAMYYCAAVPPPPDGGSCLFLGPEIKVSKADFRYWGQGTQVTVSSASHHHHHH | Abs 630 (25 nM) | 0.48 |
| IL10R binding molecule of SEQ ID NO: 289 (bispecific antibody) QVQLQESGGGSVQAGGSLRLSCTVSGYTYSSNCMGWFRQAPGKEREGVATIYTGGGNTYYADSVKGRFTISQDNAKNTVYLQMNNLKPEDTAMYYCAAEPLSRVYGGSCPTPTFDYWGQGTQVTVSSGGGSQVQLQESGGGSVQAGGSLRLSCAASGYSYSSYCMGWFRQAPGKEREGVATIDSDGMTRYADSVKGRFTISKDNAKNTLYLQMNSLKPEDTAMYYCAAPLYDCDSGAVGRNPPYWGQGTQVTVSSASHHHHHH | Abs 630 (25 nM) | 0.48 |
| IL10R binding molecule of SEQ ID NO: 348 (bispecific antibody) QVQLQESGGGSVQTGGSLRLSCAASGYTYLRGCMGWFRQAPGKEREGVAVMDVVGDRRSYIDSVKGRFTISRDNAANSVYLQMDNLKPEDTAMYYCTAGPNCVGWRSGLDYWGQGTQVTVSSGGGSQVQLQESGGGSVQAGGSLRLSCAASRFTYSSYCMGWFRQAPGKEREGVASIDSDGSTSYTDSVKGRFTISKDNAKNTLYLQMNSLKPEDTAMYYCALDLMSTVVPGFCGFLLSAGMDYWGKGTQVTVSSASHHHHHH | Abs 630 (25 nM) | 0.46 |
| IL10R binding molecule of SEQ ID NO: 268 (bispecific antibody) QVQLQESGGGSVQAGGSLRLSCAASRFTYSSYCMGWFRQAPGKEREGVASIDSDGSTSYTDSVKGRFTISKDNAKNTLYLQMNSLKPEDTAMYYCALDLMSTVVPGFCGFLLSAGMDYWGKGTQVTVSSGGGSQVQLQESGGGSVQAGGSLRLSCAASGYSYSSYCMGWFRQAPGKEREGVATIDSDGMTRYADSVKGRFTISKDNAKNTLYLQMNSLKPEDTAMYYCAAPLYDCDSGAVGRNPPYWGQGTQVTVSSASHHHHHH | Abs 630 (25 nM) | 0.53 |

Would you kindly look at the next entry?
Measured Abs 630 (25 nM), IL10R binding molecule of SEQ ID NO: 321 (bispecific antibody) QVQLQESGGGSVQAGGSLRLSCAASRYTYNSYCMGWFRQAPGKEREGVATIDSDGMTRYADSVKGRFTISKDNAKNTLYLQMNSLKPEDTAMYYCAADADCTIAAMTTNPLGQGTQVTVSSGGGSQVQLQESGGGSVQAGGSLRLSCAASGYTYSMYCMGWFRQAPGKEREGVAQINSDGSTSYADSVKGRFTISKDNAKNTLYLQMNSLKPEDTAMYYCAADSRVYGGSWYERLCGPYTYEYNYWGQGTQVTVSSASHHHHHH : 0.46
